Molecular target: H. sapiens SLC2A9 variant 2 (GLUT9B) (Homo sapiens, UniProt Q9NRM0)
Sequence (Q9NRM0 1-511 isoform Q9NRM0-2): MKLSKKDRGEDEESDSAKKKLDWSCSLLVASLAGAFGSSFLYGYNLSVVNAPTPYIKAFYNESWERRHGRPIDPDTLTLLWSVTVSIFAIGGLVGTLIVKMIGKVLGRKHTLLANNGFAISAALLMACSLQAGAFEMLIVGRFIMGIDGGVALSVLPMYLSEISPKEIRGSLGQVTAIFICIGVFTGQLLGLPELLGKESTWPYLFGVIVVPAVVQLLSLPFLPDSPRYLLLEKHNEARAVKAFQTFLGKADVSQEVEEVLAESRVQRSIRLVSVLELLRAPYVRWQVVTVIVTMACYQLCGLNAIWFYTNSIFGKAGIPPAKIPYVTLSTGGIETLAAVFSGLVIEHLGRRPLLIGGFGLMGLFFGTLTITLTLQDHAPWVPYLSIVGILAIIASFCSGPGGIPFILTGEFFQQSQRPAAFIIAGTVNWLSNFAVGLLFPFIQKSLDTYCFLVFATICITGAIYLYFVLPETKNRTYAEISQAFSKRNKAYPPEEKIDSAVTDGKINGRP
Test: GLUT9 functional assay: uric acid uptake in HEK293T cells, allantoin formation by MS/MS as proxy of GLUT9B inhibition
Format: cell-based
Details: 15 minute assay; HEK293T cells stably expressing GLUT9B and transiently A. oryzae uricase; uric acid 0.3 mM, 37° C.; read-out: 15 min IC50
Protocol: Uric acid stocks (9 mM, Millipore-Sigma, U0881) were generated in 125 mM choline chloride (Millipore-Sigma, C7017) and the concentration was determined at 293 nm using a molar extinction coefficient of 9600 M- ^1 cm- ^1) after collecting the absorbance spectra from 220-350 nm. Allantoin stocks (12 mM Toronto Research Chemicals, A540500) were generated in LCMS grade water (Thermo Scientific, 51140). The concentration of allantoin was determined by qNMR (Michigan State University). […]
measured.parameter: IC50

# annotated cases, reported IC50 shown
[[record]]
compound = "COCCCc1cnc(-c2cc(F)c3c(c2)OCO3)c(N2CCC(C(=O)O)CC2)c1 [Compound 169]"
measured_parameter = "IC50"
experimental_result = "< 500 nM"

[[record]]
compound = "O=C(O)C1CCN(c2nc(CCCC(F)(F)F)cnc2-c2ccc(OC(F)F)cc2)CC1 [Compound 159]"
measured_parameter = "IC50"
experimental_result = "500 to 2000 nM"


Recorded result, O=C(O)C1CCN(c2nc(CCCCC(F)(F)F)cnc2-c2ccc3c(c2)CCO3)CC1 [Compound 131] , IC50: < 500 nM

What the record says about COC1(C(=O)O)CCN(c2nc(CCC(F)(F)F)cnc2-c2cc(F)c3occc3c2)CC1 [Compound 92] : IC50 is 500 to 2000 nM
